tested on: C. albicans ATCC 10231; test: Antifungal MIC, CLSI M27-A3 microbroth dilution; type: cell-based, Candida albicans; settings: Candida albicans, ATCC10231; C. albicans ATCC 10231, resistant to FLC, ITC, and VOR; read-out: MIC

| SMILES RECORD | SUBJECT OF TEST | MIC |
| --- | --- | --- |
| C/C(=N\NC(=N)N)c1cccc(/C(C)=N/NC(=N)N)c1.Cl.Cl | C. albicans ATCC 10231 | > 31.3 µg/mL |
| C/C(=N\NC(=N)N)c1ccc(/C(C)=N/NC(=N)N)cc1.Cl.Cl | C. albicans ATCC 10231 | > 31.3 µg/mL |
| C/C(=N\NC(=N)N)c1ccc(-c2ccc(/C(C)=N/NC(=N)N)cc2)cc1.Cl.Cl | C. albicans ATCC 10231 | 2 to 3.9 µg/mL |
| C/C(=N\NC(=N)N)c1ccc2c(c1)Cc1cc(/C(C)=N/NC(=N)N)ccc1-2.Cl.Cl | C. albicans ATCC 10231 | 1 to 2 µg/mL |
